target: mu opioid receptor (MOR) (Homo sapiens, UniProt P35372); assay: PathHunter β-arrestin recruitment assay, PAM mode with EC20 endomorphin-1; format: cell-based; conditions: β-arrestin recruitment; read-out: β-arr. EC50
Sequence (P35372 whole entry): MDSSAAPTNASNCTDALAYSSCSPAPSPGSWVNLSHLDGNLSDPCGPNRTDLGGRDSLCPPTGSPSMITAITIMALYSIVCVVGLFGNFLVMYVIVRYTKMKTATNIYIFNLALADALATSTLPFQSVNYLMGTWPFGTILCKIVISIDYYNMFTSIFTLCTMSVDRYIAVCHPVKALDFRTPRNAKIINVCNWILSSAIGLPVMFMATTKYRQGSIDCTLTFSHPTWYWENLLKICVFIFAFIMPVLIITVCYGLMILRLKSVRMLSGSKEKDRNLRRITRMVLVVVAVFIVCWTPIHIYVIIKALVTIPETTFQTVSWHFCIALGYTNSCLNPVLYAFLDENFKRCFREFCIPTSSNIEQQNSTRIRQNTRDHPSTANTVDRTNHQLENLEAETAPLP
pEC50: −log10 of the molar value.
Exercise: state measured pEC50 for each of the compounds provided.

The compound Fc1ccc(C2CCCCN2c2nc(Cl)ncc2F)nc1 (stereo not drawn) [compound 372] showed pEC50 equal to > 6.15

Looking up Fc1cnc(Cl)nc1N1CC(F)(F)CC1c1cccc(C(F)(F)F)c1 (stereo not drawn) [compound 467] , I see its pEC50 listed as < 5.68

Reported pEC50 ( Fc1ccc(Cl)cc1CN1CCOCC1c1cccc(C(F)(F)F)n1 (racemic) [Compound 191] ) = 5.68 to 6.15

pEC50 recorded for this compound, Fc1cnc(Cl)nc1N1CCCCC1c1ccnc(C(F)(F)F)c1 (stereo not drawn) [compound 410] , is > 6.15

Quick note, pEC50 for CC1CCN(S(=O)(=O)c2ccc(Cl)cc2)C1c1ccc(F)cc1 (mixture of isomers) [Compound 95] landed at < 5.68

Data point: COc1ccc(C2CCCCCN2S(=O)(=O)c2ccc(Cl)cc2)cc1Br (racemic) [compound 84] ; pEC50 = < 5.68

The recorded pEC50 for entry Fc1cccc(C2CCCCN2c2ccnc(Cl)n2)n1 (stereo not drawn) [compound 259] equals < 5.68

Briefly, pEC50 measured for Fc1cnc(Cl)nc1N1CCC(F)(F)CC1c1cccc(C(F)(F)F)c1 (stereo not drawn) [compound 199] : > 6.15

Please examine the following record next.
Data point: N#Cc1cc(C2CCCCN2S(=O)(=O)c2ccc(Cl)cc2)ccc1F (racemic) [compound 58] ; pEC50 = < 5.68
